- Tested on: S. pneumoniae ATCC 49619
- PROCEDURE TEXT: MIC, NCCLS broth microdilution assay
- Format: cell-based, Streptococcus pneumoniae
- COND: H = S. pneumoniae ATCC 49619

# SUBSTANCE SMILES, Minimum Inhibitory Concentration (MIC)
data = [
    ("Cn1cc(NC(=O)c2cc(NC(=O)c3cc(NC(=O)c4ccc(Cl)cc4F)cn3C)c[nH]2)cc1C(=O)NCCN1CCOCC1", "+++ (+++ = MIC ≦ 4)"),
    ("Cc1cc(NC(=O)c2cc(NC(=O)c3cc(NC(=O)c4ccc(Cl)cc4)cn3C)cn2CCN2CCOCC2)sn1", "+++ (+++ = MIC ≦ 4)"),
    ("Cn1cc(NC(=O)c2ccc(F)cc2F)cc1C(=O)Nc1cc(C(=O)Nc2cc(C(=O)NCCN3CCCCC3)n(CCN3CCCCC3)c2)n(C)c1", "+++ (+++ = MIC ≦ 4)"),
    ("Cc1cc(NC(=O)c2cc(NC(=O)c3cc(NC(=O)c4ccc(Cl)cc4NCCN4CCCC4)cn3C)c[nH]2)sn1", "+++ (+++ = MIC ≦ 4)"),
    ("Cn1cc(NC(=O)c2cc(NC(=O)c3cc(NC(=O)c4ccc(OC(F)F)cc4)cn3C)cn2C)cc1C(=O)NCCN1CCCCC1", "+++ (+++ = MIC ≦ 4)"),
    ("Cn1cc(NC(=O)c2cc(NC(=O)c3ccc(Cl)cc3F)c[nH]2)cc1C(=O)NCCN1CCCC1", "+++ (+++ = MIC ≦ 4)"),
    ("Cn1cc(NC(=O)c2cc(NC(=O)c3cc(NC(=O)c4ccc(F)cc4)cn3C)cn2C)cc1C(=O)NCCN1CCSCC1", "+++ (+++ = MIC ≦ 4)"),
    ("C[C@@H]1CCC[C@H](C)N1CCNC(=O)c1cc(NC(=O)c2cc(NC(=O)c3cc(NC(=O)c4ccc(F)cc4F)cn3C)cn2C)cn1C", "+++ (+++ = MIC ≦ 4)"),
    ("Cc1cc(NC(=O)c2cc(NC(=O)c3cc(NC(=O)c4ccc(F)cc4F)c[nH]3)cn2CCN2CCOCC2)sn1", ">32 µg/mL"),
    ("Cn1cc(NC(=O)c2cc(NC(=O)c3ccc(Cl)cc3F)c[nH]2)cc1C(=O)NCCN1CCC(F)(F)CC1", "+++ (+++ = MIC ≦ 4)"),
    ("Cn1cc(NC(=O)c2cc(NC(=O)c3cc(NC(=O)c4ccc(Cl)cc4NCCN4CCCCC4)cn3C)cn2C)cc1C(N)=O", "++ (++ = 4 < MIC < 12)"),
    ("Cn1cc(NC(=O)c2cc(NC(=O)c3ccc(F)cc3)cn2C)cc1C(=O)NCCN1CCSCC1", "+++ (+++ = MIC ≦ 4)"),
    ("Cn1cc(NC(=O)c2cc(NC(=O)c3cc(NC(=O)c4ccc(Cl)cc4F)c[nH]3)cn2C)cc1C(=O)NCCN1CCSC1", "+++ (+++ = MIC ≦ 4)"),
    ("Cn1cc(NC(=O)c2cc(NC(=O)c3cc(NC(=O)c4ccc(Cl)c(Cl)c4)c[nH]3)cn2C)cc1C(=O)NCCN1CCOCC1", "+++ (+++ = MIC ≦ 4)"),
    ("Cc1cc(NC(=O)c2cc(NC(=O)c3cc(NC(=O)c4ccc(Cl)cc4NCCN4CCSCC4)cn3C)c[nH]2)sn1", "+++ (+++ = MIC ≦ 4)"),
    ("Cn1cc(NC(=O)c2cc(NC(=O)c3cc(NC(=O)c4cc(NC(=O)c5ccc(Cl)cc5F)c[nH]4)cn3C)cn2C)cc1C(=O)NCCN1CCOCC1", "+++ (+++ = MIC ≦ 4)"),
    ("COCn1cc(NC(=O)c2ccc(Cl)cc2F)cc1C(=O)Nc1cc(C(=O)Nc2cc(C(=O)NCCN3CCOCC3)n(C)c2)n(C)c1", "+++ (+++ = MIC ≦ 4)"),
    ("C[C@@H]1CN(CCNC(=O)c2cc(NC(=O)c3cc(NC(=O)c4cc(NC(=O)c5ccc(F)cc5F)c[nH]4)cn3C)cn2C)C[C@H](C)O1", "++ (++ = 4 < MIC < 12)"),
    ("Cn1cc(NC(=O)c2cc(NC(=O)c3cc(NC(=O)c4c(Cl)cccc4Cl)cn3C)cn2C)cc1C(=O)NCCN1CCOCC1", ">32 µg/mL"),
    ("Cn1cc(NC(=O)c2cc(NC(=O)c3ccc(F)cc3F)cn2C)cc1C(=O)NCCN1CCSCC1", "+++ (+++ = MIC ≦ 4)"),
    ("Cn1cc(NC(=O)c2cc(NC(=O)c3ccc(F)cc3F)cn2C)cc1C(=O)NCCN1CCOCC1", "+++ (+++ = MIC ≦ 4)"),
    ("Cc1cc(NC(=O)c2cc(NC(=O)c3cc(NC(=O)c4ccc(Cl)cc4F)cn3C)cn2CCCN(C)C)sn1", "+++ (+++ = MIC ≦ 4)"),
    ("Cn1cc(NC(=O)c2cc(NC(=O)c3cc(NC(=O)c4cc(NC(=O)c5ccccc5F)cn4C)cn3C)cn2C)cc1C(=O)NCCN1CCOCC1", "+++ (+++ = MIC ≦ 4)"),
    ("Cn1cc(NC(=O)c2cc(NC(=O)c3cc(NC(=O)c4ccc(F)cc4F)cn3C)cn2C)cc1C(=O)NCCc1cccc[n+]1C", "++ (++ = 4 < MIC < 12)"),
    ("Cn1cc(NC(=O)c2cc(NC(=O)c3cc(NC(=O)c4ccc(F)cc4F)cn3C)cn2C)cc1C(=O)NCCN(CCO)CCO", "+++ (+++ = MIC ≦ 4)"),
]
